test system: HaCat; experiment: Cytotoxic Profiling of Annotated Libraries Using Quantitative High-Throughput Screening (AID 1296008); conditions: Five cell lines viability, CellTiter-Glo ATP luminescence, 48-72 h; further: nearly all actives have a fitted effect of over 60% in size
Records with an inconclusive call do not appear. Activity calls are given as the source filed them. The call rests on the fitted dose curve; in most records, active means well fitted inhibition curve with a large enough effect; inconclusive means small, poorly fitted or top-dose-only effect; inactive means flat fitted curve, though single readings scatter.
# valid calls are T for active, F for inactive; nothing else

See these solved cases before continuing.
C[C@@H](NC(=O)C(=O)c1c[nH]c2ccc([N+](=O)[O-])cc12)c1ccccc1: F
CC(C)(C)Sc1c(CC(C)(C)C(=O)O)n(Cc2ccc(Cl)cc2)c2ccc(OCc3ccc4ccccc4n3)cc12: F
CC(=O)O[C@@H]1CC2C(C)(C)C(=O)C=C[C@]2(C)C2CC[C@@]3(C)[C@H](c4ccoc4)OC(=O)[C@H]4O[C@]43[C@@]21C (some centres undefined): F

Consider the additional compound presented here.
Could you kindly confirm the outcome this assay logged for "Cn1ncnc1[C@H]1c2n[nH]c(=O)c3cc(F)cc(c23)N[C@@H]1c1ccc(F)cc1" ?
T
